- System: P. falciparum 3D7
- test summary: DAPI stain fluorescent high content imaging assay, P. falciparum 3D7 (confirmatory screen, Avery)
- condition label: Plasmodium falciparum, 3D7, read-out: EC50_nM
Consider the following compounds and their measured EC50 readings.
property measured: EC50 (nM)

[[record]]
compound = "Cc1ccc(Nc2nc(NCCO)c3ccccc3n2)cc1C"
unit_string = "nM"
readout_number = 428

[[record]]
compound = "COc1cccc(C2(C)Nc3ccccc3-c3nc4ccccc4n32)c1 (stereo not shown)"
unit_string = "nM"
readout_number = 1150

[[record]]
compound = "CCOC(=O)C1CCN(C(=O)CN2C(=O)c3ccccc3C2c2c[nH]c3ccccc23)CC1 (stereo not shown)"
unit_string = "nM"
readout_number = 1180

[[record]]
compound = "CCN(CC)CCNc1ncnc2c1[nH]c1ccc(Br)cc12"
unit_string = "nM"
readout_number = 707

[[record]]
compound = "CCCCc1ccc(NS(=O)(=O)c2cc3c4c(c2)CCN4C(=O)CC3)cc1"
unit_string = "nM"
readout_number = 538

[[record]]
compound = "Nc1ccn([C@@H]2O[C@H](CO)[C@@H](O)[C@H]2O)c(=O)n1"
unit_string = "nM"
readout_number = 385

[[record]]
compound = "COc1nc(Nc2ccc(C(C)C)cc2)nc(OC)n1"
unit_string = "nM"
readout_number = 1140

[[record]]
compound = "CCCCC(O)(c1ccc(Cl)cc1)C(CN1CCOCC1)c1ccc(Cl)cc1 (stereo not shown)"
unit_string = "nM"
readout_number = 1380

[[record]]
compound = "O=C(NC1CCN(Cc2ccccc2)CC1)c1cc(-c2ccncc2)nc2ccc(Cl)cc12"
unit_string = "nM"
readout_number = 1020

[[record]]
compound = "O=[N+]([O-])c1ccc(C=NNc2nc3ccccc3[nH]2)cc1"
unit_string = "nM"
readout_number = 142


###

- Tested on: P. falciparum 3D7
- test summary: DAPI stain fluorescent high content imaging assay, P. falciparum 3D7 (confirmatory screen, Avery)
- condition label: Plasmodium falciparum, 3D7, read-out: EC50_nM
pEC50: −log10 of the molar value.
property measured: pEC50

[[record]]
structure_as_smiles = "CCCCNCC(O)(c1ccc(Cl)cc1)c1ccc(Cl)cc1"
property_measured = "pEC50"
readout_number = 6.07

[[record]]
structure_as_smiles = "CCn1c(CN2CCN(Cc3ccccc3)CC2)nc2cc(NC(=O)c3cccs3)ccc21"
property_measured = "pEC50"
readout_number = 6.29

[[record]]
structure_as_smiles = "COc1ccc2nc(C)cc(Nc3cccc(O)c3)c2c1"
property_measured = "pEC50"
readout_number = 6.01

[[record]]
structure_as_smiles = "c1ccc(CNc2nc(Nc3ccccc3)nc3ccccc23)cc1"
property_measured = "pEC50"
readout_number = 6.11

[[record]]
structure_as_smiles = "CN(N=O)C1=C(NC2CCCCC2)C(=O)c2ccccc2C1=O"
property_measured = "pEC50"
readout_number = 5.92


###

- Test system: P. falciparum 3D7
- test summary: DAPI stain fluorescent high content imaging assay, P. falciparum 3D7 (confirmatory screen, Avery)
- condition label: Plasmodium falciparum, 3D7, read-out: EC50_nM
pEC50: −log10 of the molar value.
Consider the following compounds and their measured pEC50 readings.
property measured: pEC50

[[record]]
compound = "COc1ccc2c(=O)cc(C(Cl)(Cl)Cl)oc2c1 [MMV665820]"
readout_number = 6.28

[[record]]
compound = "O=C(NNc1cc(N2CCCC2)nc(N2CCCC2)n1)c1ccccc1 [MMV396770]"
readout_number = 5.88

[[record]]
compound = "N#Cc1nc(Cc2cccc3ccccc23)oc1N1CCN(C(c2ccccc2)c2ccccc2)CC1 [MMV396726]"
readout_number = 5.94

[[record]]
compound = "O=C(Nc1ccc(-c2nc3cc4ccccc4cc3[nH]2)cc1)c1cccc(Br)c1 [MMV019241]"
readout_number = 6.35

[[record]]
compound = "COc1cccc(O)c1CN1CCC2(CCCN(Cc3ccc(F)cc3)C2)C1 (stereo not drawn) [MMV666061]"
readout_number = 6.28

[[record]]
compound = "O=C(Nc1ccc(F)c(Cl)c1)Nc1ccc(Cl)c(Cl)c1 [MMV665953]"
readout_number = 5.69

[[record]]
compound = "Cc1cc(Nc2ccc(C)c(Cl)c2)n2nc(C(F)(F)F)nc2n1 [MMV665874]"
readout_number = 8.17

[[record]]
compound = "CCCCCCc1cc2cc(-c3nc4ccccc4[nH]3)c(=Nc3ccccc3C)oc2cc1O [MMV666597]"
readout_number = 6.26

[[record]]
compound = "CC(=O)NCCc1nc2ccccc2n1Cc1ccc(C(C)C)cc1 [MMV007617]"
readout_number = 5.75


Reference source: paper PMC3684613
